assay: physchem; conditions: fasted state simulated intestinal fluid (FaSSIF), 25 °C, fassif, thermodynamic from solid
property.name: solubility (mg/mL)

Exercise: Name the recorded solubility of the compound listed here: CC(C)(CNC(=O)OCOP(=O)(O)O)CC(=O)N(c1nn(CC(F)(F)F)c2c(-c3ccc(C#CC(C)(C)S(C)(=O)=O)nc3[C@H](Cc3cc(F)cc(F)c3)NC(=O)Cn3nc(C(F)(F)F)c4c3C(F)(F)[C@@H]3C[C@H]43)ccc(Cl)c12)S(C)(=O)=O [Compound 41]
Key: 1.15

1 = CN(C)CCCC[C@@H](C(=O)N(c1nn(CC(F)(F)F)c2c(-c3ccc(C#CC(C)(C)S(C)(=O)=O)nc3[C@H](Cc3cc(F)cc(F)c3)NC(=O)Cn3nc(C(F)(F)F)c4c3C(F)(F)[C@@H]3C[C@H]43)ccc(Cl)c12)S(C)(=O)=O)N(C)C [Compound 6]
2 = CC(C)(C#Cc1ccc(-c2ccc(Cl)c3c(N(C(=O)/C=C/C(=O)N[C@@H](CC(=O)O)C(=O)O)S(C)(=O)=O)nn(CC(F)(F)F)c23)c([C@H](Cc2cc(F)cc(F)c2)NC(=O)Cn2nc(C(F)(F)F)c3c2C(F)(F)[C@@H]2C[C@H]32)n1)S(C)(=O)=O [Compound 2]
3 = CC(C)(C#Cc1ccc(-c2ccc(Cl)c3c(N(C(=O)CCCC(=O)OCOP(=O)(O)O)S(C)(=O)=O)nn(CC(F)(F)F)c23)c([C@H](Cc2cc(F)cc(F)c2)NC(=O)Cn2nc(C(F)(F)F)c3c2C(F)(F)[C@@H]2C[C@H]32)n1)S(C)(=O)=O [Compound 29]
Exercise: hey, can you rank those compounds up there by solubility? biggest number first please List each label, following the requested order.
Key: 2, 3, 1
